tested on: MCF-7 cells; test: MTT cytotoxicity assay, MCF-7; format: cell-based, human; conditions: MTT, 72 h incubation; read-out: IC50 (average ± standard deviation) MCF-7
observation_type: IC50

{"columns": ["compound", "assay_value"],
 "data": [
  ["O=C(O)c1ccc(S(=O)(=O)N(Cc2ccc(OC(F)(F)F)cc2)c2ncc(C(F)(F)F)cc2Cl)cc1", "17 µM"],
  ["N#Cc1c(-c2ccccc2)cc(-c2cc(Br)ccc2O)[nH]c1=O", "74 µM"],
  ["Cl.O=C(O)Cc1cccc(OCCCN(Cc2cccc(C(F)(F)F)c2Cl)CC(c2ccccc2)c2ccccc2)c1 [GW3965 (hydrochloride)]", "25 µM"],
  ["O=C(O)c1cc(N2N=C(C(F)(F)F)/C(=C/c3ccc(-c4ccccc4)o3)C2=O)ccc1Cl", "10 µM"]
]}

---

Target: GST P1-1 (Homo sapiens)
Construct: purchased Sigma-Aldrich
Test: High-throughput GST P1-1 inhibition assay (384-well screen, CDNB/GSH)
Type: biochemical
Details: compound 10 μM; score 0 = negative control (DMSO), 1 = positive control (EA 50 μM); average of duplicate
Method: Each drug compound was added to the respective well at a volume of 80 nL of 10 mM stock solution in DMSO, yielding a final compound concentration of 10 μM and a final DMSO concentration of 0.1%. […] The plates were incubated for 2 h in the dark at 25°C and then the absorbance was of each well recorded on a BioTek Synergy NEO HTS multimode plate reader (Agilent®) at a wavelength of 340 nm. The z’factor was calculated for each plate according to Zhang et al.. […]
Is Score at least 0.9? Then Fulfilled. If not, Not fulfilled.

{"columns": ["compound", "label_class"],
 "data": [
  ["Cc1cc(=O)n(-c2ccccc2)[nH]1 [N-demethylantipyrine]", "Fulfilled"],
  ["CC(C)(C)c1ccc(CN2CCN(C(c3ccccc3)c3ccc(Cl)cc3)CC2)cc1 (stereo not drawn)", "Not fulfilled"],
  ["CC1(C)CC[C@]2(NC(=O)C(C)(F)F)CC[C@]3(C)[C@H](C(=O)C=C4[C@@]5(C)C=C(C#N)C(=O)C(C)(C)[C@@H]5CC[C@]43C)[C@@H]2C1", "Not fulfilled"],
  ["C[C@H]1COC2=C1C(=O)C(=O)c1c2ccc2c1CCCC2(C)C", "Fulfilled"],
  ["O=C(Nc1cccc(C(F)(F)F)c1)Nc1ccc(Br)cc1-c1nn[nH]n1", "Not fulfilled"]
]}

---

Reported Score by item:
Target: GST P1-1 (Homo sapiens, UniProt P09211)
Construct: purchased Sigma-Aldrich
Sequence (P09211 2-210 limits assumed): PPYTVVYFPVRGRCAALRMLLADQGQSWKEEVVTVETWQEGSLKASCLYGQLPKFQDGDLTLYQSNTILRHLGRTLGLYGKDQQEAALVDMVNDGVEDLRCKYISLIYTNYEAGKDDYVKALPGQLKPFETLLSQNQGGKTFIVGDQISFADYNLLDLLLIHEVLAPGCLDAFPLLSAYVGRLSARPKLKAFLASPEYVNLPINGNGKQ
Test: High-throughput GST P1-1 inhibition assay (384-well screen, CDNB/GSH)
Type: biochemical
Details: compound 10 μM; score 0 = negative control (DMSO), 1 = positive control (EA 50 μM); average of duplicate
Description: Each drug compound was added to the respective well at a volume of 80 nL of 10 mM stock solution in DMSO, yielding a final compound concentration of 10 μM and a final DMSO concentration of 0.1%. […] The plates were incubated for 2 h in the dark at 25°C and then the absorbance was of each well recorded on a BioTek Synergy NEO HTS multimode plate reader (Agilent®) at a wavelength of 340 nm. The z’factor was calculated for each plate according to Zhang et al.. […]

{"columns": ["compound", "tested_system", "Score"],
 "data": [
  ["O=C1c2c(O)cccc2Cc2cccc(O)c21 [Anthralin]", "GST P1-1 (Homo sapiens, UniProt P09211)", 0.694],
  ["Oc1c(Cl)cc(Cl)c(Cl)c1Cc1c(O)c(Cl)cc(Cl)c1Cl [Hexachlorophene]", "GST P1-1 (Homo sapiens, UniProt P09211)", 1.077],
  ["Oc1ccc(Nc2nc(-c3ccc(Cl)cc3)cs2)cc1 [SKI II]", "GST P1-1 (Homo sapiens, UniProt P09211)", 0.694],
  ["CC(C)=CCC/C(C)=C/CC/C(C)=C/CSc1ccccc1C(=O)O [Salirasib]", "GST P1-1 (Homo sapiens, UniProt P09211)", 0.717],
  ["O=C1OC2(c3cc(I)c(O)c(I)c3Oc3c2cc(I)c(O)c3I)c2c(Cl)c(Cl)c(Cl)c(Cl)c21 [Rose-bengal-lactone]", "GST P1-1 (Homo sapiens, UniProt P09211)", 0.937],
  ["N[C@@H](Cc1cc(-c2ccc(Cl)cc2Cl)cc(CP(=O)(O)O)c1O)C(=O)O [SDZ-220-040]", "GST P1-1 (Homo sapiens, UniProt P09211)", 0.871],
  ["O=C1C(=Cc2cccnc2)C(=O)c2ccccc21 [PRT 4165]", "GST P1-1 (Homo sapiens, UniProt P09211)", 0.890],
  ["COc1cc(C[C@H](C)[C@H](C)Cc2ccc3c(c2)OCO3)ccc1O [Macelignan]", "GST P1-1 (Homo sapiens, UniProt P09211)", 0.803],
  ["CCCCCCCCCCCCc1ccc(S(=O)(=O)Nc2nncs2)cc1 [PHT-427]", "GST P1-1 (Homo sapiens, UniProt P09211)", 0.696],
  ["Oc1cccc(-c2c3nc(c(-c4cccc(O)c4)c4ccc([nH]4)c(-c4cccc(O)c4)c4nc(c(-c5cccc(O)c5)c5ccc2[nH]5)CC4)C=C3)c1 [Temoporfin]", "GST P1-1 (Homo sapiens, UniProt P09211)", 0.699]
]}

Where these numbers come from: paper PMC12289066
